Experiment: Lethal dose in rat
Type: toxicity
Measurement conditions: in vivo
Endpoint name: LD50

# Line notation, Value measured
data = [
    ("Nc1onc2c1CCC2", "< 300 mg/kg"),
]

----------
Experiment: Half life periof was determined
Assay type: ADME
Endpoint name: half-life (h)

# Line notation, Value measured
measured = [
    ("Nc1onc2c1CCC2", 97),
]
